- Test system: CYP2B6
- testDetails: CYP2B6 mRNA expression in HPH (real-time PCR)
- conditionDetails: HPH, 24 h, vs vehicle control (0.1% DMSO)
endpoint: Effect on CYP2B6 mRNA expression

                                   compound             assayvalue
0  CCO[C@H]1O[C@@H]2O[C@@]3(C)CC[C@H]4[C@H](C)CC[C@@H]([C@H]1C)[C@@]24OO3 [Artemotil]  significantly induced
1  Clc1ccc(Nc2nnc(Cc3ccncc3)c3ccccc23)cc1 [Vatalanib]  significantly induced

====

- experimentalSystem: human CAR (hCAR) (Homo sapiens, UniProt Q14994)
- Sequence (Q14994 1-348 isoform Q14994-2): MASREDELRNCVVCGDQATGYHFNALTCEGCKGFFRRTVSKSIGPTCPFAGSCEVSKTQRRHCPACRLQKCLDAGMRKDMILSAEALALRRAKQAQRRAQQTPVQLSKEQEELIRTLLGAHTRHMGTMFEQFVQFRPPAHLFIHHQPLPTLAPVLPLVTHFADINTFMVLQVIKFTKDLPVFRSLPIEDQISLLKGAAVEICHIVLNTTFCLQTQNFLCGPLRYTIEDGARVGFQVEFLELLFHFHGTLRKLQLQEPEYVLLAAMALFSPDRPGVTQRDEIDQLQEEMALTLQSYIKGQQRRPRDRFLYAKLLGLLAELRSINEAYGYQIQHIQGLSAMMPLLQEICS
- testDetails: hCAR luciferase reporter qHTS, agonist mode (HepG2-CYP2B6-hCAR cells, PK11195 co-treatment)
- conditionDetails: Primary Screen Potency (EC50), agonist mode, primary qHTS, 2.5 μM PK11195, 24 h
endpoint: EC50
# output: number + unit

Value of EC50 reported for the compound COc1cc(N)c(Cl)cc1C(=O)NC1CCN(Cc2ccccc2)CC1 [Clebopride] is 7.6 µM

Value of EC50 reported for the compound "Nc1ccc(Cl)cc1C(=O)c1ccccc1F" is 3.4 µM

Value of EC50 reported for the compound CC(COc1ccccc1)N(CCCl)Cc1ccccc1 (stereo not shown) is 9.5 µM

Value of EC50 reported for the compound "NNCCc1ccccc1" is 15.1 µM

Value of EC50 reported for the compound "CN1CCc2cccc3c2[C@H]1Cc1ccc(O)c(O)c1-3" is 19 µM

Value of EC50 reported for the compound "Clc1ccc(Nc2nnc(Cc3ccncc3)c3ccccc23)cc1" is 10.7 µM
